target: SARS-CoV-2 spike RBD (WT) (Severe acute respiratory syndrome …, UniProt P0DTC2); assay: ELISA; design: unit not given here
Collected binding score values appear next to each entry.
Value Type: binding score

>>> endpoint_value("C2717 (antibody, V domains shown) VH: EVQLVESGGGLVQPGGSLRLSCAASGFTVSSNYMSWVRQAPGKGLEWVSVIYSGGSTYYADSVKGRFTISRDNSKNTLYLQMNSLRAEDTAVYYCARELYSSSSYFDYWGQGTLVTVSS VL: QSVLTQPPSVSGAPGQRVTISCTGSSSNIGAGYDVHWYQQLPGTAPKLLIYGNSNRPSGVPDRFSGSKSGTSASLAITGLQAEDEADYYCQSYDSSLSGSGVFGGGTKLTVL")
124
>>> endpoint_value("C2736 (antibody, V domains shown) VH: QVQLVQSGAEVKKPGSSVKVSCKASGGTFSSYAISWVRQAPGQGLEWMGGIIPIFGTANYAQKFQGRVTITADESTSTAYMELSSLRSEDTAVYYCASCRYYYDSSGYAQPEDYFDYWGQGTLVTVSS VL: QSVLTQPPSVSGAPGQRVTISCTGSSSNIGAGYDVHWYQQLPGTAPKLLIYGNSNRPSGVPDRFSGSKSGTSASLAITGLQAEDEADYYCQSYDSSLSGSHVVFGGGTKLTVL")
79.9
>>> endpoint_value("D176 (antibody, V domains shown) VH: QVQLVQSGAEVKKPGASVKVSCKASGYTFTSYDINWVRQATGQGLEWMGWMNPNSGNTGYAQKFQGRVTITRNTSISTAYMELSSLRSEDTAVYYCARGGSLMDVWGKGTTVTVSS VL: QFVLTQPASVSGSPGQSITISCTGTSSDVGGYNYVSWYQQHPGKAPKLMIYDVSKRPSGVSNRFSGSKSGNTASLTISGLQAEDEADYYCSSYTSSSTFEVFGGGTKLTVL")
1430
>>> endpoint_value("C2725 (antibody, V domains shown) VH: EVQLVESGGGLVQPGRSLRLSCAASGFTFDDYAMHWVRQAPGKGLEWVSGISWNSGSIGYADSVKGRFTISRDNAKNSLYLQMNSLRAEDTALYYCAKLSRGHYYDFKADSGDFDYWGQGTLVTVSS VL: QSALTQPASVSGSPGQSITISCTGTSSDVGSYNLVSWYQQHPGKAPKLMIYEGSKRPSGVSNRFSGSKSGNTASLTISGLQAEDEADYYCCSYAGSSWVFGGGTKLTVL")
230
